target: JNK3 kinase (Jnk-3alpha-2) (Homo sapiens); construct: Jnk-3alpha-2 (as a truncated construct, residues 39 to 224) was expressed in E. coli as a GST fusion protein; Following purification the GST portion was removed by thrombin cleavage; fused on or other part: An N-terminal GST tag was used for expression and removed by thrombin cleavage before the assay; test: JNK3 Kinase Assay; assay type: biochemical; conditions: Table 9; read-out: JNK3 IC50
Sequence (P53779 39-402 limits assumed): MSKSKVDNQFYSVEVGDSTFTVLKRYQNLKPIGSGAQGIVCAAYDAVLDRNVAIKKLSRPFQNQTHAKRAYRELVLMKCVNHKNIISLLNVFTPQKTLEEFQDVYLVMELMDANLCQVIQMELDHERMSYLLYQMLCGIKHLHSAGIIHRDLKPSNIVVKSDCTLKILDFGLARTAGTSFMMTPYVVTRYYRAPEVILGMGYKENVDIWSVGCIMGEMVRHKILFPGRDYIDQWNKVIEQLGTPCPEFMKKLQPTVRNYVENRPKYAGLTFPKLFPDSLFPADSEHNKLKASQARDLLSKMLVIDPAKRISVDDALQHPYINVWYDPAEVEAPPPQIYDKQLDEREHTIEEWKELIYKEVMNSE
pIC50: −log10 of the molar value.
propertyMeasured: pIC50

1) CN(C)CCCNc1nccc(-c2c(-c3ccc(C(F)(F)F)cc3)nn3cc(C(F)(F)F)ccc23)n1	5.00 to 6.00
2) CN1CCN(CCCNc2nccc(-c3c(-c4ccc(F)cc4)nn4cc(C(F)(F)F)ccc34)n2)CC1	6.00 to 7.00
3) Fc1ccc(-c2nn3cc(C(F)(F)F)ccc3c2-c2ccnc(NCCN3CCCCC3)n2)cc1Cl	5.00 to 6.00

Here is the next item to consider.
Could you share what pIC50 was measured for `CC(C)N(CCNc1nccc(-c2c(-c3ccc(F)c(Cl)c3)nn3cc(C(F)(F)F)ccc23)n1)C(C)C` , tested on JNK3 kinase (Jnk-3alpha-2) (Homo sapiens)? 5.00 to 6.00

====

Documented IC50 across a set of compounds
molecular target: JNK3 kinase (Jnk-3alpha-2) (Homo sapiens); construct: Jnk-3alpha-2 (as a truncated construct, residues 39 to 224) was expressed in E. coli as a GST fusion protein; Following purification the GST portion was removed by thrombin cleavage; fused on or other part: An N-terminal GST tag was used for expression and removed by thrombin cleavage before the assay; test: JNK3 Kinase Assay; assay type: biochemical; conditions: Table 9; read-out: JNK3 IC50

Example compounds with recorded IC50:
1. CCCN(CCC)CCNc1nccc(-c2c(-c3ccc(F)c(Cl)c3)nn3cc(C(F)(F)F)ccc23)n1	1 to 10 µM
2. Fc1ccc(-c2nn3cc(C(F)(F)F)ccc3c2-c2ccnc(NCCN3CCCC3)n2)cc1Cl	1 to 10 µM
3. CCN(CC)CCCCNc1nccc(-c2c(-c3ccc(F)c(Cl)c3)nn3cc(C(F)(F)F)ccc23)n1	0.1 to 1 µM
4. Fc1ccc(-c2nn3cc(C(F)(F)F)ccc3c2-c2ccnc(NCCCN3CCCCC3)n2)cc1Cl	0.1 to 1 µM

Here is the next item to consider.
Could you share what IC50 was measured for `FC(F)(F)c1ccc(-c2nn3cc(C(F)(F)F)ccc3c2-c2ccnc(NCCCN3CCCCC3)n2)cc1` , tested on JNK3 kinase (Jnk-3alpha-2) (Homo sapiens)? 1 to 10 µM

====

Documented IC50 across a set of compounds
target: p38 kinase (Homo sapiens, UniProt Q16539); construct: GST (N); made in house; host or cells: E. coli; assay: p38 Kinase Assay; type: biochemical; settings: Table 8, compounds wherein Z is N; read-out: p38 kinase (inhibition of p38 kinase, IC50)
Sequence (Q16539 whole entry): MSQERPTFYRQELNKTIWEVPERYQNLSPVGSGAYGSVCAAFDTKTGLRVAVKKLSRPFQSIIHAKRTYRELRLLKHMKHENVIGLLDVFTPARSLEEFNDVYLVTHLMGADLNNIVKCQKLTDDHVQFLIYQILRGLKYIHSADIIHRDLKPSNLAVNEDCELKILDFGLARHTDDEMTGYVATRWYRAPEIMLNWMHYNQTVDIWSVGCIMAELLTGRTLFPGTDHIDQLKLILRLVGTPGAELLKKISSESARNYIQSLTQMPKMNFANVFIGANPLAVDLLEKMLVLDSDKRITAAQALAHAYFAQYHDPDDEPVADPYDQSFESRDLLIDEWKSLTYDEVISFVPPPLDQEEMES

Example compounds with recorded IC50:
1) CC(C)Nc1nccc(-c2c(-c3ccc(F)cc3)nn3cc(C(F)(F)F)ccc23)n1 [Example 69]	< 500 nM
2) Nc1nccc(-c2c(-c3ccc(F)cc3)nn3cc(C(F)(F)F)ccc23)n1 [Example 65]	< 500 nM

Can you look up the measured IC50 of OCCCNc1nccc(-c2c(-c3ccc(F)cc3)nn3cc(C(F)(F)F)ccc23)n1 [Example 72] for me? < 500 nM

Values were extracted from patent US7166597B2.
